Tested on: Fibroblast
Assay Method Text: Multiplex assay against human fibroblast
Assay type: toxicity, cell-based
Conditions: 12 h, 1 µM, compound concentration 1 uM, replicate 1
Listed next: entries and their corresponding Population Normal (%).
The answer is to be given in %; state only the numeric part.

Compound: CC(C)C[C@H](CO)Nc1nc(S[C@@H](C)c2ccccc2)nc2nc(N)sc12
Population Normal (%): 98
//
Compound: CN(C)C(=O)Cn1cc(-c2ccc(-c3nnc4ccccn34)cc2)cn1
Population Normal (%): 94
//
Compound: CCC(=O)OCC(=O)[C@@]1(OC(=O)CC)[C@@H](C)C[C@H]2[C@@H]3CCC4=CC(=O)C=C[C@]4(C)[C@@]3(Cl)[C@@H](O)C[C@@]21C [BECLOMETHASONE DIPROPIONATE]
Population Normal (%): 96
//
Compound: CCc1nn2c(C)cc(C)nc2c1Cc1ccc(-c2nnc(C3CCNCC3)o2)cc1
Population Normal (%): 97
//
Compound: COc1ccc2c(c1OCc1ccccc1)C[C@@H](C(=O)O)N(C(=O)C(c1ccccc1)c1ccccc1)C2
Population Normal (%): 92
//
Compound: COC(c1ccccc1)(c1ccccc1)[C@H](Oc1nc(C)cc(C)n1)C(=O)O
Population Normal (%): 98
//
Compound: Cc1ccc(OCC(O)C(C)NC(C)C)c2c1CCC2.Cl (configuration not stated)
Population Normal (%): 99
//
Compound: O=C(NCCNCC(O)COc1ccc(O)cc1)N1CCOCC1.O=C(NCCNCC(O)COc1ccc(O)cc1)N1CCOCC1.O=C(O)/C=C/C(=O)O (configuration not stated) [XAMOTEROL FUMARATE]
Population Normal (%): 97
//
Compound: Nc1nc(-c2ccco2)c2cnn(Cc3ccccc3F)c2n1
Population Normal (%): 99
//
Compound: C=CCN1C[C@H](C(=O)N(CCCN(C)C)C(=O)NCC)C[C@@H]2c3cccc4[nH]cc(c34)C[C@H]21
Population Normal (%): 93

-- ask Using the record for "S=C(NCCCc1c[nH]cn1)NCCCN(Cc1ccc(Cl)c(Cl)c1)c1ccc(Br)cn1" , state its measured Population Normal (%).
-- reply 94

-- ask Using the record for "COc1c(Nc2ccc(S(C)(=O)=O)nc2C)ncnc1OC1CCN(C(=O)OC(C)C)CC1" , state its measured Population Normal (%).
-- reply 96

-- ask Using the record for CCn1c(-c2nc3cc(C(=O)N4CCCC(N)C4)ccc3n2C)cc2ccccc21.Cl (configuration not stated) , state its measured Population Normal (%).
-- reply 96

-- ask Using the record for "Cc1cc(NC(=O)NCCN2CCC(O)(Cc3ccccc3)CC2)c2ccccc2n1" , state its measured Population Normal (%).
-- reply 97

-- ask Using the record for "COc1cc(OC2CCN(C(C)=O)CC2)ccc1C(=O)N1CCC(N2C(=O)OCc3ccccc32)CC1" , state its measured Population Normal (%).
-- reply 94

-- ask Using the record for "O=c1nc2[nH]c3ccccc3nc-2c(=O)[nH]1" , state its measured Population Normal (%).
-- reply 94

-- ask Using the record for "Nc1nc(CC(=O)Nc2ccc(CCNC[C@H](O)c3ccccc3)cc2)cs1" , state its measured Population Normal (%).
-- reply 94

###

Tested on: HEK-293T
Assay Method Text: Multiplex assay against HEK293T
Format: toxicity, cell-based
Conditions: human, 12 h, 10 µM, compound concentration 10 uM, replicate 1
Endpoint: Population Mitotic Cells (%)
The answer is to be given in %; state only the numeric part.

Here are 4 compounds together with their reported answers.
Compound: Nc1nc(CC(=O)Nc2ccc(CCNC[C@H](O)c3ccccc3)cc2)cs1 [MIRABEGRON]
Endpoint: Population Mitotic Cells (%)
Unit Label: %
Value Reported: 67
--
Compound: OCCCNc1cc(-c2ccnc(Nc3cccc(Cl)c3)n2)ccn1
Endpoint: Population Mitotic Cells (%)
Unit Label: %
Value Reported: 21
--
Compound: COCCn1c(C)c(C)s/c1=N\C(=O)C1C(C)(C)C1(C)C
Endpoint: Population Mitotic Cells (%)
Unit Label: %
Value Reported: 22
--
Compound: Cl.Cl.OCCOCCN1CCN(C(c2ccccc2)c2ccc(Cl)cc2)CC1 (stereo unspecified) [HYDROXYZINE HYDROCHLORIDE]
Endpoint: Population Mitotic Cells (%)
Unit Label: %
Value Reported: 50

-- ask Using the record for CC(C)C[C@H](CO)Nc1nc(S[C@@H](C)c2ccccc2)nc2nc(N)sc12 [AZD-8797] , state its measured Population Mitotic Cells (%).
-- reply 34
